Sourced from patent US20220340678A1

Target System: T1, histidine-tagged human uPAR (Sino#10925-H08H) (human, UniProt Q03405 23-303)
T1 construct: also called uPAR-His
Assay Procedure: BLI (Octet), antibody on anti-human Fc sensor, uPAR from 50 nM;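 further: antibodies captured at 10 µg/mL on anti-human Fc biosensors, with uPAR as analyte in a twofold dilution series from 50 nM downward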
Classify by measured koff: 1.0 if it is equal to or exceeds 0.0009 s⁻¹, 0.0 if it is smaller.

Exercise: Does the binder M8-Chimeric (antibody, V domains shown) VH: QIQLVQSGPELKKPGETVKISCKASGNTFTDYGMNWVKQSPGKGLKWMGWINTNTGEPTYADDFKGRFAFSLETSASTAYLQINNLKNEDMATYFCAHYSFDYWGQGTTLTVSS VL: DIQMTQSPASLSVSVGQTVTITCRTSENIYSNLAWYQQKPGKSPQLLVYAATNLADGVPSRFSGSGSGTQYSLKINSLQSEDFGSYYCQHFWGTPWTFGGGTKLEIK have recorded koff that is 0.0009 s⁻¹ or more?
Solution: 0.0
